Where do the numbers come from? From ChEMBL document CHEMBL5543167.

Assay: Half-life in male Sprague-Dawley rat at 5 mg/kg, iv measured after 24 hrs by LC-MS/MS analysis
Type: ADME, organism-based
Details: in vivo
Value type: half-life (h)
Report only the number, with the unit h understood.

Qu. Can you share its half-life? I mean this molecule: CCS(=O)(=O)n1cc(-c2nc(Nc3ccc(N4CCN(CCCCCCC(=O)Nc5cccc6c5CN(C5CCC(=O)NC5=O)C6=O)CC4)cc3)ncc2C(F)(F)F)c2ccccc21 (stereo unspecified)
Ans. 38

====

Biological target: Protein cereblon/Epidermal growth factor receptor (Homo sapiens, UniProt P00533+Q96SW2, T790M/C797S/L858R)
Sequence (P00533 25-1210 T790M/C797S/L858R limits assumed, stated change not applied): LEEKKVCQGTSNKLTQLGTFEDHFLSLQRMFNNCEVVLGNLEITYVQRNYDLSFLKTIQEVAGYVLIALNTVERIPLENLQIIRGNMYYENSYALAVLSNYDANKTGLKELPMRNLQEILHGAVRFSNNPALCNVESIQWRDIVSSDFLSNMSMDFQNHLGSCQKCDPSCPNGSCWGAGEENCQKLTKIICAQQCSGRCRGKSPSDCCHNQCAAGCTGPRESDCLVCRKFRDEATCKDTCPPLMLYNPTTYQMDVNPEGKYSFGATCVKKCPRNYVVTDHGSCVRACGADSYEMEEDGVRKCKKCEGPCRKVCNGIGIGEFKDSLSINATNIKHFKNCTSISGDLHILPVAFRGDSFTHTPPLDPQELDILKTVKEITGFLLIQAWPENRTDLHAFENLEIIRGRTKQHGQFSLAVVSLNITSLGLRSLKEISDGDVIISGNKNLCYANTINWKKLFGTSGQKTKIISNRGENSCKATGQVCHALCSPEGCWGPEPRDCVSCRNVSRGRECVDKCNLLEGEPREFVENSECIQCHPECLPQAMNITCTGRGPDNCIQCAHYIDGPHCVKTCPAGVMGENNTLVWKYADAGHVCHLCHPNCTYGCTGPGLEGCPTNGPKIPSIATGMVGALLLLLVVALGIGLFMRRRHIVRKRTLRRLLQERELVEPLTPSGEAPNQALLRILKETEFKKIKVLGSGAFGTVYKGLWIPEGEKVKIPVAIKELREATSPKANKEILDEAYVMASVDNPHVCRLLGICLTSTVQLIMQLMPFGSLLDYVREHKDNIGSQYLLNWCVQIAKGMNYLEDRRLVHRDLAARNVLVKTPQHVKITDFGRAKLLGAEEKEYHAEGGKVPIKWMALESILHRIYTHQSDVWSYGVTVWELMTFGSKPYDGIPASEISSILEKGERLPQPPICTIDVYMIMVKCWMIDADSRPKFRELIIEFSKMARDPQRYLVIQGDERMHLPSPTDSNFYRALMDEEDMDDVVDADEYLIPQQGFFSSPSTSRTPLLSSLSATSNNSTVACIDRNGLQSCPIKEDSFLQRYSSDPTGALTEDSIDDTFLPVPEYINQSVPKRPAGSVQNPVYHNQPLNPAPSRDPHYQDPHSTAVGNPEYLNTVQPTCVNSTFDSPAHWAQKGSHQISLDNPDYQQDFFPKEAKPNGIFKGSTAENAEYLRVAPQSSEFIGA
Sequence (Q96SW2 whole entry, stated change not applied): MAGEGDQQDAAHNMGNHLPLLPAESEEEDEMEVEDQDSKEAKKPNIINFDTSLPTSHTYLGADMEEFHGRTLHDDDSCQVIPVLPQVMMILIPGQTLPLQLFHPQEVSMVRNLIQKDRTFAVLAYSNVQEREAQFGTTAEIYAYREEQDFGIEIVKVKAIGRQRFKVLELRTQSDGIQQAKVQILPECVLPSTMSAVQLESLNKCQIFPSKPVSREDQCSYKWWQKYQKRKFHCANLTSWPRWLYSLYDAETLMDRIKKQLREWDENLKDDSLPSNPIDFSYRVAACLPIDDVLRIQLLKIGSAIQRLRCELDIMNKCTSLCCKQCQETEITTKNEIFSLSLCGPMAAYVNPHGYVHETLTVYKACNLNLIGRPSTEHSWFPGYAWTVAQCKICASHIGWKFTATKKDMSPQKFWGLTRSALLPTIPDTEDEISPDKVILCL
Test: PROTAC activity at CRBN/EGFR L858R/T790M/C797S mutant in human H1975-TM cells assessed as induction of EGFR degradation incubated for 24 hrs by Western blot analysis
Format: cell-based
Value type: DC50 (nM)
Lab book: enter the figure in nM, no units written.

Qu. Bench note: what DC50 did CCS(=O)(=O)n1cc(-c2nc(Nc3ccc(N4CCN(CC(=O)Nc5cccc6c5CN(C5CCC(=O)NC5=O)C6=O)CC4)cc3)ncc2C(F)(F)F)c2ccccc21 (configuration not stated) show?
Ans. 30.1

Qu. Could you do the same for CCS(=O)(=O)n1cc(-c2nc(Nc3ccc(N4CCN(CCCCCCCC(=O)Nc5cccc6c5CN(C5CCC(=O)NC5=O)C6=O)CC4)cc3)ncc2C(F)(F)F)c2ccccc21 (configuration not stated) , please?
Ans. 17

Qu. Moving on to CCS(=O)(=O)n1cc(-c2nc(Nc3ccc(N4CCN(CCCCCCCCCCC(=O)Nc5cccc6c5CN(C5CCC(=O)NC5=O)C6=O)CC4)cc3)ncc2C(F)(F)F)c2ccccc21 (configuration not stated)
Ans. 281

Qu. How about CCS(=O)(=O)n1cc(-c2nc(Nc3ccc(N4CCN(CCCCC(=O)Nc5cccc6c5CN(C5CCC(=O)NC5=O)C6=O)CC4)cc3)ncc2C(F)(F)F)c2ccccc21 (configuration not stated) ?
Ans. 82.5

====

Assay: AUC (0 to infinity) in male Sprague-Dawley rat at 50 mg/kg, po measured after 24 hrs by LC-MS/MS analysis
Assay type: ADME, organism-based
Conditions: in vivo
Value type: AUC(0-inf)

Qu. Fill in the blank: the reported AUC(0-inf) of CCS(=O)(=O)n1cc(-c2nc(Nc3ccc(N4CCN(CCCCCCC(=O)Nc5cccc6c5CN(C5CCC(=O)NC5=O)C6=O)CC4)cc3)ncc2C(F)(F)F)c2ccccc21 (stereo unspecified) is ____.
Ans. 750 ng·h/mL

====

Assay: Cmax in male Sprague-Dawley rat at 50 mg/kg, po measured after 24 hrs by LC-MS/MS analysis
Type: ADME, organism-based
Conditions: in vivo
Value type: Cmax
Note: a bare number is incomplete; add the unit.

Qu. Param item = CCS(=O)(=O)n1cc(-c2nc(Nc3ccc(N4CCN(CCCCCCC(=O)Nc5cccc6c5CN(C5CCC(=O)NC5=O)C6=O)CC4)cc3)ncc2C(F)(F)F)c2ccccc21 (stereo unspecified) ; retrieve measured Cmax.
Ans. 57.8 ng/mL

====

Test: AUC (0 to infinity) in male Sprague-Dawley rat at 5 mg/kg, iv measured after 24 hrs by LC-MS/MS analysis
Format: ADME, organism-based
Conditions: in vivo
Value type: AUC(0-inf)

Qu. Look up AUC(0-inf) for this molecule: CCS(=O)(=O)n1cc(-c2nc(Nc3ccc(N4CCN(CCCCCCC(=O)Nc5cccc6c5CN(C5CCC(=O)NC5=O)C6=O)CC4)cc3)ncc2C(F)(F)F)c2ccccc21 (stereo unspecified)
Ans. 1800 ng·h/mL

====

Biological target: Protein cereblon/Epidermal growth factor receptor (Homo sapiens, UniProt P00533+Q96SW2, T790M/C797S/L858R)
Test: PROTAC activity at CRBN/EGFR L858R/T790M/C797S mutant in human H1975-TM cells assessed as induction of EGFR degradation incubated for 24 hrs by Western blot analysis
Assay type: cell-based
The label is 1 for DC50 below 50 nM and 0 for DC50 equal to or exceeding 50 nM.

Qu. Answer whether the molecule CCS(=O)(=O)n1cc(-c2nc(Nc3ccc(N4CCN(C(=O)CCCCCCC(=O)Nc5cccc6c5CN(C5CCC(=O)NC5=O)C6=O)CC4)cc3)ncc2C(F)(F)F)c2ccccc21 (stereo not drawn) has DC50 strictly less than 50 nM
Ans. 0

Qu. Also CCS(=O)(=O)n1cc(-c2nc(Nc3ccc(N4CCN(CCCCCC(=O)Nc5cccc6c5CN(C5CCC(=O)NC5=O)C6=O)CC4)cc3)ncc2C(F)(F)F)c2ccccc21 (stereo not drawn) ?
Ans. 0

Qu. Same thing, different molecule: CCS(=O)(=O)n1cc(-c2nc(Nc3ccc(N4CCN(CCC(=O)Nc5cccc6c5CN(C5CCC(=O)NC5=O)C6=O)CC4)cc3)ncc2C(F)(F)F)c2ccccc21 (stereo not drawn)
Ans. 1

Qu. Same read-out for CCS(=O)(=O)n1cc(-c2nc(Nc3ccc(N4CCN(C(=O)CCCCC(=O)Nc5cccc6c5CN(C5CCC(=O)NC5=O)C6=O)CC4)cc3)ncc2C(F)(F)F)c2ccccc21 (stereo not drawn) ?
Ans. 0

Qu. Moving on to CCS(=O)(=O)n1cc(-c2nc(Nc3ccc(N4CCN(C(=O)CCCCCC(=O)Nc5cccc6c5CN(C5CCC(=O)NC5=O)C6=O)CC4)cc3)ncc2C(F)(F)F)c2ccccc21 (stereo not drawn)
Ans. 0

Others:
Qu. Determine if CCS(=O)(=O)n1cc(-c2nc(Nc3ccc(N4CCN(CCCCCCCCC(=O)Nc5cccc6c5CN(C5CCC(=O)NC5=O)C6=O)CC4)cc3)ncc2C(F)(F)F)c2ccccc21 (stereo not drawn) shows DC50 strictly lower than 50 nM.
Ans. 1

Qu. Param item: CCS(=O)(=O)n1cc(-c2nc(Nc3ccc(N4CCN(CCOCCOCC(=O)Nc5cccc6c5CN(C5CCC(=O)NC5=O)C6=O)CC4)cc3)ncc2C(F)(F)F)c2ccccc21 (stereo not drawn)
Ans. 1
